Measured Antibiotic MIC in combination (RIF) values are reported for all entries that follow.
# Test system: E. coli ST131
# conditions-used: MIC of rifampicin combined with the labelled peptidomimetic
# Protocol: The potential synergistic effects in peptidomimetic-antibiotic combinations were assessed by using a two-dimensional checkerboard assay (Garcia, [2010]). […] The fractional inhibitory concentration index (FICI) was calculated as [MICA(A+B)/MICA(alone)] + [MICB(A+B)/MICB(alone)], where MICA(A+B) represents the MIC of antibiotic (A) in combination with peptidomimetic (B), while MICB(A+B) represents the MIC of peptidomimetic (B) in combination with antibiotic (A). […]

compound	system-tested	unit-label	Antibiotic MIC in combination (RIF)
NCCCC[C@H](NC(=O)CCN(Cc1ccccc1)C(=O)[C@H](CCCCN)NC(=O)CCN(Cc1ccccc1)C(=O)[C@H](CCCCN)NC(=O)CCN(Cc1ccccc1)C(=O)[C@H](CCCCN)NC(=O)CCN(Cc1ccccc1)C(=O)[C@H](CCCCN)NC(=O)CCN(Cc1ccccc1)C(=O)[C@H](CCCCN)NC(=O)CCN(Cc1ccccc1)C(=O)[C@H](CCCCN)NC(=O)CCN(Cc1ccccc1)C(=O)[C@@H](N)CCCCN)C(=O)N(CCC(N)=O)Cc1ccccc1 [Peptidomimetic 1, H-(Lys-βNPhe)8-NH2]	E. coli ST131	µg/mL	0.06
CC(=O)N[C@@H](CCCCN)C(=O)N(CCC(=O)N[C@@H](CCCCN)C(=O)N(CCC(=O)N[C@@H](CCCCN)C(=O)N(CCC(=O)N[C@@H](CCCCN)C(=O)N(CCC(=O)N[C@@H](CCCCN)C(=O)N(CCC(=O)N[C@@H](CCCCN)C(=O)N(CCC(N)=O)Cc1ccccc1)Cc1ccccc1)Cc1ccccc1)Cc1ccccc1)Cc1ccccc1)Cc1ccccc1 [Peptidomimetic 14, Ac-(Lys-βNPhe)6-NH2]	E. coli ST131	µg/mL	0.25
COCCOCCOCC(=O)N[C@@H](CCCCN)C(=O)N(CCC(=O)N[C@@H](CCCCNC(=N)N)C(=O)N(CCC(=O)N[C@@H](CCCCN)C(=O)N(CCC(=O)N[C@@H](CCCCNC(=N)N)C(=O)N(CCC(=O)N[C@@H](CCCCN)C(=O)N(CCC(=O)N[C@@H](CCCCNC(=N)N)C(=O)N(CCC(N)=O)[C@@H](C)c1ccccc1)[C@@H](C)c1ccccc1)[C@@H](C)c1ccccc1)[C@@H](C)c1ccccc1)[C@@H](C)c1ccccc1)[C@@H](C)c1ccccc1 [Peptidomimetic 28, TODA-(Lys-βNspe-hArg-βNspe)3-NH2]	E. coli ST131	µg/mL	0.13
